Where a name gives a salt, the structure may show the parent alone.
Property Label: melting point

CCc1nc(-c2ccc(F)cc2)[nH]c1-c1ccccc1OC (as salt: HCl)    200 to 203 °C (dec.)
CCc1nc(-c2ccc(Cl)cc2)[nH]c1-c1ccccc1    174 to 176 °C

Below: the item to evaluate.
Any idea what its melting point is? The molecule is CSCc1nc(-c2ccc(C#N)cc2)[nH]c1-c1ccccc1 (as salt: HCl)
256 to 259 °C

----------
Test system: isolated rabbit urinary bladder
Test Description: Relaxation effect on potassium-induced contraction of isolated rabbit urinary bladder
Type: cell-based
Reported Conditions: Oryctolagus cuniculus; 50% relaxation concentration; high-K+ (30 mM) pre-contracted rabbit bladder strips; relaxation as percentage of the maximum produced by 0.1 mM papaverine; read-out: EC50 value range
Property Label: EC50

O=C(O)Cc1nc(-c2ccc3ncccc3c2)oc1-c1ccc(Cl)s1    1000 to 3000 nM
CCc1nc(-c2ccc(F)cc2)[nH]c1-c1cnccn1    500 to 1000 nM
Cn1ccc2cc(-c3nc(CC(=O)O)c(-c4ccc(Cl)s4)o3)ccc21    1000 to 3000 nM
CONC(=O)Cc1nc(-c2ccc(F)cc2)oc1-c1ccsc1    1000 to 3000 nM
O=C(O)Cc1nc(-c2ccc(Cl)cc2)oc1C1CCCC1    1000 to 3000 nM

What value of EC50 has been recorded for this entry: `CCc1nc(-c2ccc(C#N)cc2)[nH]c1-c1cccnc1`
500 to 1000 nM

Any idea what EC50 was measured for `CCc1nc(-c2ccc(Cl)cc2)[nH]c1-c1cccnc1` ?
500 to 1000 nM

# EC50 lookup, item `O=C(O)Cc1nc(-c2ccc3ccccc3n2)oc1-c1ccc(Cl)s1`
500 to 1000 nM

Returns the measured EC50 for the input compound. Input: `CCc1c(-c2cccnc2)nc(-c2ccc(F)cc2)n1CC`
500 to 1000 nM

Attribution: patent US7759373B2
